Test system: HepG2 cells
protocol summary: HepG2 cell viability assay (CCK-8)
Format: cell-based, human
cond: Homo sapiens, HepG2, 72 h
For each record, check the reported IC50: if it is below 9 nM write fulfilled, else write not fulfilled.

Q: Say whether its IC50 is strictly beneath 9 nM. Entry: C[C@H](C(=O)Nc1ncc(C(F)(F)F)s1)c1cccc(-c2cnc(NC(=O)/C=C/CN3CCCC3)cn2)c1
Ans: not fulfilled

Q: Say whether its IC50 is strictly beneath 9 nM. Entry: C[C@H](C(=O)Nc1ncc(C(F)(F)F)s1)c1cccc(-c2cnc(NC(=O)/C=C/CN3CC4CC3CO4)cn2)c1 (stereo partly drawn)
Ans: not fulfilled

Q: Say whether its IC50 is strictly beneath 9 nM. Entry: C[C@H](C(=O)Nc1ncc(C2CCC2)s1)c1cccc(-c2cnc(NC(=O)/C=C/CN(C)C)cn2)c1
Ans: fulfilled

Q: Say whether its IC50 is strictly beneath 9 nM. Entry: CCc1cnc(NC(=O)[C@@H](C)c2cccc(-c3cnc(N(C)C(=O)/C=C/CN(C)C)c(C#N)c3)c2)s1
Ans: not fulfilled

Q: Say whether its IC50 is strictly beneath 9 nM. Entry: CC(C(=O)Nc1ncc(C(F)(F)F)s1)c1cncc(-c2cnc(NC(=O)/C=C/CN(C)C)c(C#N)c2)c1 (stereo not drawn)
Ans: fulfilled

Q: Say whether its IC50 is strictly beneath 9 nM. Entry: C[C@H](C(=O)Nc1ncc(C(F)(F)F)s1)c1cccc(-c2cnc(NC(=O)/C=C/CN(C)C)c(C(F)(F)F)c2)c1
Ans: fulfilled

Q: Say whether its IC50 is strictly beneath 9 nM. Entry: CCc1cnc(NC(=O)C(C)c2cncc(-c3cnc(NC(=O)/C=C/CN(C)C)c(C#N)c3)c2)s1 (stereo not drawn)
Ans: not fulfilled

Q: Say whether its IC50 is strictly beneath 9 nM. Entry: C=CC(=O)Nc1ccc(-c2cccc(C(C)C(=O)Nc3ncc(C4CC4)s3)c2)cn1 (stereo not drawn)
Ans: not fulfilled

Q: Say whether its IC50 is strictly beneath 9 nM. Entry: C[C@H](C(=O)Nc1ncc(Cl)s1)c1cccc(-c2cnc(NC(=O)/C=C/CN(C)C)cn2)c1
Ans: not fulfilled

Q: Say whether its IC50 is strictly beneath 9 nM. Entry: C[C@H](C(=O)Nc1ncc(C(F)(F)F)s1)c1cccc(-c2cnc(NC(=O)/C=C/CN3CC[C@@H](F)C3)cn2)c1
Ans: not fulfilled

Q: Say whether its IC50 is strictly beneath 9 nM. Entry: CCc1cnc(NC(=O)[C@@H](C)c2cccc(-c3cnc(NC(=O)/C=C/CN4CC5CC4CO5)c(C#N)c3)c2)s1 (stereo partly drawn)
Ans: not fulfilled

Q: Say whether its IC50 is strictly beneath 9 nM. Entry: CCc1cnc(NC(=O)[C@@H](C)c2cccc(-c3cnc(NC(=O)/C=C/CN(C)C)c(C#N)c3)c2)s1
Ans: fulfilled

Q: Say whether its IC50 is strictly beneath 9 nM. Entry: C=CC(=O)Nc1ccc(-c2cccc([C@H](C)C(=O)Nc3ncc(C4CC4)s3)c2)cn1
Ans: fulfilled

Q: Say whether its IC50 is strictly beneath 9 nM. Entry: COc1cc(-c2cccc([C@H](C)C(=O)Nc3ncc(C(F)(F)F)s3)c2)cnc1NC(=O)/C=C/CN(C)C
Ans: fulfilled
